Values were extracted from PubChem BioAssay (Tox21).

assay: Caspase-3/7 induction in CHO-K1 cells by small molecules, qHTS cell viability counter screen (AID 1346979); details: CellTiter-Fluor fluorescence, 17 h; series mostly up to 92.4 µM; further: nearly all actives have a fitted effect of over 35% in size
Records with an inconclusive call do not appear. Calls of active or inactive are those of the source. The call rests on the fitted dose curve; in most records, active means well fitted cell-killing curve with a large enough effect in the repeat runs; inconclusive means weak or mixed curves, or effect the other way; inactive means no such curve, though single readings can be large or run the other way.
property_name: outcome

* O=[N+]([O-])c1cc(C(F)(F)F)ccc1Cl | inactive
* Brc1ccc(Oc2ccc(Br)cc2)cc1 | inactive
* Nc1cccc(C(F)(F)F)c1 | inactive
* O=c1n(CCCN2CCN(c3cccc(Cl)c3)CC2)nc2ccccn12 | inactive
* OB(O)O | inactive
* C[n+]1ccn(CCO)c1 | inactive
* CCCOC(=O)NCCCN(C)C | inactive
* COc1ccccc1[N+](=O)[O-] | inactive
* C=CC(=O)NCOCCCC | inactive
* COc1c(Cl)ccc(Cl)c1C(=O)O | inactive
* CCc1cccc(O)c1 | inactive
* CCCOCC(C)O (centres undefined) | inactive
* COc1ccc([C@@H]2CC(=O)c3c(O)cc(O[C@@H]4O[C@H](CO[C@@H]5O[C@@H](C)[C@H](O)[C@@H](O)[C@H]5O)[C@@H](O)[C@H](O)[C@H]4O)cc3O2)cc1OC | inactive
* CCCCCCCCCCCCCC(=O)O | inactive

---

experiment: qHTS assay to identify small molecule antagonists of the estrogen related receptor (ERR) signaling pathway from Tox21 library - cell viability counter screen (AID 1224834); details: ERR reporter cells viability, CellTiter-Fluor, 17.5 h; series mostly up to 92.4 µM; further: nearly all actives have a fitted effect of over 30% in size
Results filed as inconclusive are left out. Activity calls are given as the source filed them. Calls come from the whole dose curve; as a rule, active = well fitted cell-killing curve with a large enough effect in the repeat runs; inconclusive = weak or mixed curves; inactive = flat fitted curve, though single readings scatter.
property_name: outcome

• Oc1ccc(Cc2ccccc2O)cc1 = inactive
• CC(=O)OC/C=C(\C)CCC=C(C)C = inactive
• CC(=O)C(C)C = inactive
• NC1CCCCC1N (stereo not drawn) = inactive
• CC(COCC(C)OC(=O)c1ccccc1)OC(=O)c1ccccc1 (stereo not drawn) = inactive
• CO[Si](CCCNCCN)(OC)OC = inactive
• CCCCCCCC(=O)O = inactive
• CCCCC(CC)COC(=O)c1ccc(C(=O)OCC(CC)CCCC)cc1 (stereo not drawn) = inactive

---

target: Cytochrome P450 2D6 (Homo sapiens); test: Cytochrome P450 Family 2 Subfamily D Member 6 (CYP2D6) small molecule antagonists: luciferase reporter qHTS assay (AID 1671196); details: P450-Glo CYP2D6 enzyme assay, luciferin luminescence, 1 h; series mostly up to 115 µM; further: nearly all actives have a fitted effect of over 50% in size
Records with an inconclusive call do not appear. Active and inactive are the calls of the source. Calls follow the shape of the dose curve; as a rule, active = well fitted inhibition curve with a large enough effect in the repeat runs; inconclusive = weak or mixed curves; inactive = no such curve, though single readings can be large or run the other way.
Classes used: YES for active, NO for inactive

* CCCCCNCCCCC | YES
* CCCN(CCC)C(=O)SCC | NO
* N#CCC(=O)O | NO
* CCCCCCCC(=O)O | NO
* COC(=O)/C=C\C(=O)OC | NO
* O=C1OC(=O)c2c(Cl)c(Cl)c(Cl)c(Cl)c21 | NO
* CS(=O)(=O)c1ccc(Cl)cc1 | NO
* CC(=O)C(C)C | NO
* CO[Si](CCCNCCN)(OC)OC | NO
* CCCCC(=O)O | NO
* Nc1cccc(C(F)(F)F)c1 | NO
* CCn1cc(C(=O)O)c(=O)c2cc3c(cc21)OCO3 | NO
* Cc1cc(C)cc(O)c1 | NO
* O=[N+]([O-])c1cc(C(F)(F)F)ccc1Cl | NO
* COc1ccccc1[N+](=O)[O-] | NO
* Cc1nnc(NS(=O)(=O)c2ccc(N)cc2)s1 | NO

---

assay: qHTS assay for small molecules that induce genotoxicity in human embryonic kidney cells expressing luciferase-tagged ATAD5 (AID 651632); settings: HEK293T ATAD5-luciferase induction, 16 h; series mostly up to 83.3 µM; further: nearly all actives have a fitted effect of over 15% in size
Inconclusive results are not listed. Active and inactive are the calls of the source. Calls come from the whole dose curve; as a rule, active = well fitted activation curve with a large enough effect in the repeat runs; inconclusive = weak or mixed curves; inactive = no such curve, though single readings can be large or run the other way.
property_name: outcome

- C[Si](C)(C)N[Si](C)(C)C: inactive
- CCCCCNCCCCC: inactive
- Cc1ccc([N+](=O)[O-])cc1N: inactive
- Cc1cc(C)cc(O)c1: inactive
- O=C(O)Cc1c[nH]c2ccccc12: inactive
- CC(=O)OCc1ccc2c(c1)OCO2: inactive
- CC(C)(C)NC[C@H](O)COc1nsnc1N1CCOCC1: inactive
- CC(COCC(C)OC(=O)c1ccccc1)OC(=O)c1ccccc1 (stereo unspecified): inactive
- CCn1cc(C(=O)O)c(=O)c2cc3c(cc21)OCO3: inactive
- CCCOCC(C)O (stereo unspecified): inactive
- CN=C(NC#N)NCCSCc1nc[nH]c1C: inactive
- CO[Si](CCCNCCN)(OC)OC: inactive
- COc1c(Cl)ccc(Cl)c1C(=O)O: inactive
- CCc1cccc(CC)c1N: inactive
- CCCCC(CC)COC(=O)c1ccc(C(=O)OCC(CC)CCCC)cc1 (stereo unspecified): inactive
- Cc1nnc(NS(=O)(=O)c2ccc(N)cc2)s1: inactive
- N#CCC(=O)O: inactive
- CC(CN1c2ccccc2Sc2ccccc21)N(C)C (stereo unspecified): inactive
- C=CC(C)(C)C: inactive
- COc1ccc(N)c(OC)c1: inactive
- NC(=O)NC(N)=O: inactive
- CC[N+](CC)(CC(=O)Nc1c(C)cccc1C)Cc1ccccc1: inactive
- COc1cc(NC(=O)CC(C)=O)c(OC)cc1Cl: inactive
- Cc1cc(CC(=O)O)n(C)c1C(=O)c1ccc(Cl)cc1: inactive
- CC/C(C)=N/O: inactive
- O=C(O)C1=NN(c2ccc(S(=O)(=O)O)cc2)C(=O)C1: inactive
- CC(C)c1ccc(C(C)C)cc1: inactive
- CC(=O)c1nccs1: inactive
- CCCCCCCC(=O)O: inactive
- Cc1ccccc1C=O: inactive
- OC1CCCCC1: inactive
- O=C(c1ccccc1)c1ccc(O)c(O)c1O: inactive
- Cc1ccncc1: inactive
- Cc1ccc(C)c(S(=O)(=O)O)c1: inactive
- O=[N+]([O-])c1cc(C(F)(F)F)ccc1Cl: inactive
- CC(=O)CC(=O)N(C)C: inactive
- CC(=O)OCCC(C)C: inactive
- CCOC(=O)CC(=O)OCC: inactive
- COc1c2ccoc2cc2oc(=O)ccc12: inactive
- CC(=O)Nc1ccc(CC(=O)O)cc1: inactive
- CC(=O)OC(C)(C)C1CC=C(C)CC1 (stereo unspecified): inactive
- OCC(CO)(CO)CO: inactive
- CC(O)CNCC(C)O (stereo unspecified): inactive
- COCN(COC)c1nc(N(COC)COC)nc(N(COC)COC)n1: inactive
- NC(=O)c1ncn([C@@H]2O[C@H](CO)[C@@H](O)[C@H]2O)n1: inactive
- OCC(O)CS (stereo unspecified): inactive
- CCCCC(=O)O: inactive
- CCN(CC)CCNC(=O)c1ccc(N)cc1: inactive
- Nc1nc(N)c2nc(-c3ccccc3)c(N)nc2n1: inactive
- Nc1cccc(N)n1: inactive
- COc1ccc([C@@H]2CC(=O)c3c(O)cc(O[C@@H]4O[C@H](CO[C@@H]5O[C@@H](C)[C@H](O)[C@@H](O)[C@H]5O)[C@@H](O)[C@H](O)[C@H]4O)cc3O2)cc1OC: inactive
- CC(C=O)Cc1ccc(C(C)(C)C)cc1 (stereo unspecified): inactive
- O=C1CCCCCCCCCCC1: inactive
- C[n+]1ccn(CCO)c1: inactive
- COC(=O)/C=C\C(=O)OC: inactive
- O=Cc1ccc(CO)o1: inactive

---

Test: qHTS assay to identify small molecule agonists of the sonic hedgehog signaling (Shh) pathway - cell viability counter screen (AID 1259366); further: nearly all actives have a fitted effect of over 50% in size
Details: NIH/3T3 Gli1-Luc viability, CellTiter-Fluor, 24 h; series mostly up to 92.4 µM
Source text: National Center for Advancing Translational Sciences [NCATS] NIH Chemical Genomics Center [NCGC] U.S. Environmental Protection Agency [EPA] National Institutes of Environmental Health Sciences [NIEHS] National Toxicology Program [NTP] U.S. Food and Drug Administration [FDA] The sonic hedgehog (Shh) pathway is essential for normal embryonic development. Dysregulation of the Shh pathway can cause severe developmental defects in organs. […]
Results filed as inconclusive are left out. Active and inactive are the calls of the source. Calls follow the shape of the dose curve; as a rule, active = well fitted cell-killing curve with a large enough effect in the repeat runs; inconclusive = weak or mixed curves, or effect the other way; inactive = flat fitted curve, though single readings scatter.
property_name: outcome

* Brc1ccc(Oc2ccc(Br)cc2)cc1 | inactive
* Cc1cc(CC(=O)O)n(C)c1C(=O)c1ccc(Cl)cc1 | inactive
* COC(=O)OC | inactive
* CC(=O)OC(C)(C)C1CC=C(C)CC1 (configuration not stated) | inactive
* O=C(O)C1=NN(c2ccc(S(=O)(=O)O)cc2)C(=O)C1 | inactive
* COc1c(Cl)ccc(Cl)c1C(=O)O | inactive
* OC1CCCCC1 | inactive
* Cc1ccc(C(C)C)cc1 | inactive
* CC(=O)OC/C=C(\C)CCC=C(C)C | inactive
* CC(=O)C(C)C | inactive
* OCc1ccc(Cl)cc1Cl | inactive
* O=C1OC(=O)c2c(Cl)c(Cl)c(Cl)c(Cl)c21 | inactive
* C=C(C)CC(C)(C)C | inactive
* CC1(C)[C@@H](O[C@H]2O[C@H](C(=O)O)[C@@H](O)[C@H](O)[C@H]2O[C@@H]2O[C@H](C(=O)O)[C@@H](O)[C@H](O)[C@H]2O)CC[C@]2(C)[C@H]3C(=O)C=C4[C@@H]5C[C@@](C)(C(=O)O)CC[C@]5(C)CC[C@@]4(C)[C@]3(C)CC[C@@H]12 | inactive
* C=C(CC(=O)O)C(=O)O | inactive
* CC(COCC(C)OC(=O)c1ccccc1)OC(=O)c1ccccc1 (configuration not stated) | inactive
* CC(O)CNCC(C)O (configuration not stated) | inactive
* Cc1ccccc1C=O | inactive
* Nc1cccc(C(F)(F)F)c1 | inactive
* Clc1cccc(Cl)c1NC1=NCCN1 | inactive
* Cc1cc(C)c(O)c(C)c1 | inactive
* COc1ccccc1[N+](=O)[O-] | inactive
* O=[N+]([O-])c1cc(C(F)(F)F)ccc1Cl | inactive
* OCCOCCOCCOCCOCCO | inactive
* COc1ccc2cc3[n+](cc2c1OC)CCc1cc2c(cc1-3)OCO2 | inactive
* CC(C=O)Cc1ccc(C(C)(C)C)cc1 (configuration not stated) | inactive
* C=C1C[C@]23C[C@@]1(O)CC[C@H]2[C@@]12C=C[C@H](O)[C@@](C)(C(=O)O1)[C@H]2[C@@H]3C(=O)O | inactive
